Cited source: the NIST ThermoML archive (doi:10.1016/j.jct.2017.02.024)

- Measurement Description: mn = molality of the nth substance listed, in mol/kg
- Recorded Conditions: 323.15 K; 100 kPa; Liquid; Vibrating tube method; m1 = 0.5
Listed below: mass density values for each entry.
Measure Name: mass density (kg/m3)

>  <Compound>
C[C@@H](O)[C@H](N)C(=O)O [L-threonine] + O

>  <Reported Measurement>
1007.62

$$$$
>  <Compound>
N=C(N)NCCC[C@H](N)C(=O)O [L-arginine] + O

>  <Reported Measurement>
1010.54

$$$$
>  <Compound>
C[C@H](N)C(=O)O [(S)-2-aminopropanoic acid] + O

>  <Reported Measurement>
1001.49

$$$$
>  <Compound>
NCC(=O)O [2-aminoacetic acid] + O

>  <Reported Measurement>
1002.96

$$$$

###

- Measurement Description: mn = molality of the nth substance listed, in mol/kg
- Recorded Conditions: 323.15 K; 100 kPa; Liquid; Capillary tube (Ostwald / Ubbelohde) method; m1 = 0.2
Label rule, in plain words: viscosity of 0.6 mPa·s and up is label 1, under 0.6 mPa·s is label 0.

>  <Compound>
C[C@H](N)C(=O)O [(S)-2-aminopropanoic acid] + O

>  <Assigned Category>
label 0

$$$$
>  <Compound>
C[C@@H](O)[C@H](N)C(=O)O [L-threonine] + O

>  <Assigned Category>
label 0

$$$$
>  <Compound>
OC[C@@H](O)[C@@H](O[C@H]1O[C@H](CO)[C@@H](O)[C@H](O)[C@H]1O)[C@H](O)[C@@H](O)CO [4-O-α-D-glucopyranosyl-D-glucitol] + O

>  <Assigned Category>
label 1

$$$$
>  <Compound>
NCC(=O)O [2-aminoacetic acid] + O

>  <Assigned Category>
label 0

$$$$

###

Listed below: mass density values for each entry.
- Measurement Description: mn = molality of the nth substance listed, in mol/kg
- Recorded Conditions: 313.15 K; 100 kPa; Liquid; Vibrating tube method; m1 = 0.3

>  <Compound>
C[C@H](N)C(=O)O [(S)-2-aminopropanoic acid] + O

>  <mass density / kg/m3>
1000.5

$$$$
>  <Compound>
NCC(=O)O [2-aminoacetic acid] + O

>  <mass density / kg/m3>
1001.42

$$$$
>  <Compound>
C[C@@H](O)[C@H](N)C(=O)O [L-threonine] + O

>  <mass density / kg/m3>
1004.35

$$$$
>  <Compound>
CC(C)[C@H](N)C(=O)O [L-valine] + O

>  <mass density / kg/m3>
999.89

$$$$
>  <Compound>
N=C(N)NCCC[C@H](N)C(=O)O [L-arginine] + O

>  <mass density / kg/m3>
1006.3

$$$$

###

- Measurement Description: mn = molality of the nth substance listed, in mol/kg
- Recorded Conditions: 313.15 K; 100 kPa; Liquid; Vibrating tube method; m1 = 0.6
Listed below: mass density values for each entry.
Measure Name: mass density (kg/m3)

>  <Molecule>
NCC(=O)O [2-aminoacetic acid] + O

>  <Reported Measurement>
1010.23

$$$$
>  <Molecule>
C[C@@H](O)[C@H](N)C(=O)O [L-threonine] + O

>  <Reported Measurement>
1015.75

$$$$
>  <Molecule>
C[C@H](N)C(=O)O [(S)-2-aminopropanoic acid] + O

>  <Reported Measurement>
1008.36

$$$$
>  <Molecule>
OC[C@@H](O)[C@@H](O[C@H]1O[C@H](CO)[C@@H](O)[C@H](O)[C@H]1O)[C@H](O)[C@@H](O)CO [4-O-α-D-glucopyranosyl-D-glucitol] + O

>  <Reported Measurement>
1058.71

$$$$
>  <Molecule>
N=C(N)NCCC[C@H](N)C(=O)O [L-arginine] + O

>  <Reported Measurement>
1019.13

$$$$
